The measurements presented in this section are drawn from patent US20220204611A1.

- Tested Target: T1, human TREM2 (human, UniProt Q9NZC2 19-174, limits assumed)
- T1 sequence: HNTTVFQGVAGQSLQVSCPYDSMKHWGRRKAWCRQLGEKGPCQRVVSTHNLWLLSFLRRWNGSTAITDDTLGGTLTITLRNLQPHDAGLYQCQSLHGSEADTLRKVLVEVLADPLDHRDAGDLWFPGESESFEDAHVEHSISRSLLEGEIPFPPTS
- Experimental Details: yeast-displayed Fab FACS, 1st screen 10 nM
Measure Name: binding signal fold over 6E7 parental (fold)
Answers are plain numbers, in fold.

>  <Binder>
V65 (Fab, V domains shown) VH: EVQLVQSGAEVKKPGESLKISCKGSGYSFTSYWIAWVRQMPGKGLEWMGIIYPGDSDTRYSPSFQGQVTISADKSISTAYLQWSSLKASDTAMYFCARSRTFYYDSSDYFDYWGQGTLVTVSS VL: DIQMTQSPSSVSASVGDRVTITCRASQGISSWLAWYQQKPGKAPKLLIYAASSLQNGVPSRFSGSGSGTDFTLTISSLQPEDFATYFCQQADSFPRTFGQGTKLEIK

>  <Measure Name>
binding signal fold over 6E7 parental

>  <Result Value>
2.05

$$$$
>  <Binder>
V53 (Fab, V domains shown) VH: EVQLVQSGAEVKKPGESLKISCKGSGYSFTSYWIAWVRQMPGKGLEWMGIIYPGDSDTRYSPHFQGQVTISADKSISTAYLQWSSLKASDTAMYFCARQRTFYYDSSDYFDYWGQGTLVTVSS VL: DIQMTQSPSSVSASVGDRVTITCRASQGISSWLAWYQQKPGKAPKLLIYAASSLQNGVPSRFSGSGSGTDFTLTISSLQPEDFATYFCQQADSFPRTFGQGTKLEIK

>  <Measure Name>
binding signal fold over 6E7 parental

>  <Result Value>
1.25

$$$$

Read the next record carefully.
According to the records, this binder V84 (Fab, V domains shown) VH: EVQLVQSGAEVKKPGESLKISCKGSGYGFTSYWIAWVRQMPGKGLEWMGIIYPGDSDTRYSPSFQGQVTISADKSISTAYLQWSSLKASDTAMYFCARQRTFYYDSSDYSDYWGQGTLVTVSS VL: DIQMTQSPSSVSASVGDRVTITCRASQGISSWLAWYQQKPGKAPKLLIYGASSLQNGVPSRFSGSGSGTDFTLTISSLQPEDFATYFCQQADSFPRTFGQGTKLEIK displays binding signal fold over 6E7 parental of 1.44
